Record set of Ki for target or system human Thrombin (Homo sapiens).

Example entries and their recorded answers appear below.
COC[C@@H](C(=O)N1CCOCC1)N1CC[C@H](NS(=O)(=O)CCc2ccc(Cl)s2)C1=O
< 50 nM
C[C@@H](C(=O)N1CCOCC1)N1CC[C@H](NS(=O)(=O)CCc2ccc(Cl)cc2)C1=O
< 50 nM

Find the recorded Ki belonging to CC[C@H](C)[C@@H](C(=O)N1CCOCC1)N1CC[C@H](NS(=O)(=O)CC2CCc3cc(Cl)ccc32)C1=O (some centres unmarked) and report it.
< 50 nM

Find the recorded Ki belonging to `CCOC[C@@H](C(=O)N1CCOCC1)N1CC[C@H](NS(=O)(=O)/C=C(\C)c2ccc(Cl)s2)C1=O` and report it.
< 10 nM

Find the recorded Ki belonging to CC[C@H](C)[C@@H](C(=O)N1CCOCC1)N1CC[C@H](NS(=O)(=O)CC(O)c2ccc(Cl)cc2)C1=O (some centres unmarked) and report it.
< 100 nM

Find the recorded Ki belonging to `C/C(=C\S(=O)(=O)N[C@H]1CCN([C@@H](CC(=O)OCc2ccccc2)C(=O)N2CCOCC2)C1=O)c1ccc(Cl)s1` and report it.
< 10 nM

Find the recorded Ki belonging to `COC(=O)CN([C@H]1CCN([C@@H](C)C(=O)N2CCOCC2)C1=O)S(=O)(=O)CCc1ccc(Cl)s1` and report it.
< 25 nM

Find the recorded Ki belonging to `CC(C)[C@@H](C(=O)N1CCOCC1)N1CC[C@H](NS(=O)(=O)CCc2ccc(Cl)s2)C1=O` and report it.
< 10 nM

Find the recorded Ki belonging to `CC[C@H](C)[C@@H](C(=O)N1CCOCC1)N1CC[C@H](NS(=O)(=O)CC(=O)c2ccc(Cl)cc2)C1=O` and report it.
< 50 nM

* * *

pKi: −log10 of the molar value.
Record set of pKi for target or system human Thrombin (Homo sapiens, UniProt P00734).

Give the reported pKi for `O=C(O)C[C@@H](C(=O)N1CCOCC1)N1CC[C@H](NS(=O)(=O)CCc2ccc(Cl)s2)C1=O` (system: human Thrombin (Homo sapiens, UniProt P00734)).
> 6.70

Give the reported pKi for `C/C(=C\S(=O)(=O)N[C@H]1CCN([C@@H](C)C(=O)N2CCOCC2)C1=O)c1ccc(Cl)cc1` (system: human Thrombin (Homo sapiens, UniProt P00734)).
> 7.60

Give the reported pKi for `CC[C@H](C)[C@@H](C(=O)N1CCOCC1)N1CC[C@H](NS(=O)(=O)/C=C(\C)c2ccc(Cl)s2)C1=O` (system: human Thrombin (Homo sapiens, UniProt P00734)).
> 8.00

Give the reported pKi for C[C@@H](C(=O)N1CCOCC1)N1CC[C@H](NS(=O)(=O)/C=C/c2ccc(Cl)cc2)C1=O [reference compound] (system: human Thrombin (Homo sapiens, UniProt P00734)).
< 6.70

Give the reported pKi for `O=C([C@H](c1cccs1)N1CC[C@H](NS(=O)(=O)CCc2ccc(Cl)s2)C1=O)N1CCOCC1` (system: human Thrombin (Homo sapiens, UniProt P00734)).
> 7.30

Give the reported pKi for `C[C@@H](C(=O)N1CCOCC1)N1CC[C@H](NS(=O)(=O)/C=C(/c2ccc(Cl)s2)C(F)(F)F)C1=O` (system: human Thrombin (Homo sapiens, UniProt P00734)).
> 7.00
